Measured STVcFPD, listed per entry.
# Tested on: lined-up hESC-CMs
# protocol notes: MEA field potential recording of lined-up hESC-CMs (cFPD, CT, their STVs, ISI, beat rate, arrest)
# Type: cell-based, human
# experimental parameters: Conc. 10^3 nM (1 μM); change vs Ctrl.
The response must be a number in % with no trailing unit.

Completed entries (count: 3):
>>> experimental_result("COc1ccc(CCN2CCC(Nc3nc4ccccc4n3Cc3ccc(F)cc3)CC2)cc1")
122
>>> experimental_result("Cc1cccc(CCN2CCC(C(=O)c3ccc(NS(C)(=O)=O)cc3)CC2)n1")
110
>>> experimental_result("CCN(CC)CC(=O)Nc1c(C)cccc1C")
54

Q: # query: STVcFPD of entry O=C(NCC1CCCCN1)c1cc(OCC(F)(F)F)ccc1OCC(F)(F)F (centres unmarked) [Flecainide, flecainide]
Ans: 0.32

Q: # query: STVcFPD of entry CC(C)(C)c1ccc(C(O)CCCN2CCC(C(O)(c3ccccc3)c3ccccc3)CC2)cc1 (centres unmarked)
Ans: 37

Data credit: paper PMC6162288
